The origin of these recorded values is PubChem BioAssay AID463190.

experiment: growth inhibitors of tim10-1 mutant yeast, primary screen, luminescence, uHTS (AID 463190);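 further: mutant grown at 25 °C; 0% = DMSO wells with yeast and 100% = wells holding no yeast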; conditions: S. cerevisiae tim10-1 ts strain growth, BacTiter-Glo, 24 h; at 20 µM; stronger effect = higher value
Screen size: about 330,000 compounds; about 7,300 (2.2%) were called active. The full list was thinned out, with actives kept by preference.
Readout: inhibition (%)
Write it as a number; the unit % goes unstated.

Recorded results for 2 molecules are shown here.
                                   molecule  unit_info  reading
0  O=C(CN1CCN(c2nc(-c3ccccc3)cs2)CC1)NCc1ccc2c(c1)OCO2          %     30.8
1  O=c1nc2s/c(=C\c3ccco3)c(=O)n2nc1Cc1ccccc1          %       63

Give inhibition for the following molecule: "Cc1cc(N=Nc2ccc3ccccc3c2)ccc1O" 57.7

Give inhibition for the following molecule: "O=C(O)CSC(NC(=O)c1cccnc1)(C(F)(F)F)C(F)(F)F" -2.15

Give inhibition for the following molecule: "COc1ccc(OC)c(/C(C)=N\NC(=O)c2cc3cc(Cl)ccc3n2C)c1" 14.6

Give inhibition for the following molecule: Cc1cc(NC(=O)CSc2nc(C(C)C)nc3sc4c(c23)CCC(C)C4)no1 (stereo not given) 4.7

Give inhibition for the following molecule: "c1ccc(-c2cn3c(n2)CCc2ccc4cccnc4c2-3)cc1" 42

Give inhibition for the following molecule: CC(C)(C)NC(=O)NC(=O)COC(=O)C1(C)CC1(Cl)Cl (stereo not given) 21.3

Give inhibition for the following molecule: "OCC[C@H]1C[C@H](O)[C@@H](O)[C@]2(Cc3ccccc3CO2)O1" 19

Give inhibition for the following molecule: "O=C(NCCc1ccco1)c1nn(Cc2ccccc2)c(=O)c2ccccc12" 14.5

Give inhibition for the following molecule: CCC(C)c1ccccc1NC(=O)CN(C)CC(=O)Nc1ccccc1SC (stereo not given) 11.9

Give inhibition for the following molecule: "S=c1[nH]nc(CSCc2ccc(Cl)cc2Cl)n1-c1ccccc1" 41.3

Give inhibition for the following molecule: "COc1ccccc1OCCC(=O)OCC(=O)NC(=O)NC(C)(C)C" 17.9

Give inhibition for the following molecule: "CC(C)(C)NC(=O)NC(=O)COC(=O)CCC1CCCCC1" 40.3

Give inhibition for the following molecule: "CCCCn1c(N)c(N(CCC(C)C)C(=O)COC(=O)c2ccc(CC)cc2)c(=O)[nH]c1=O" 9.31

Give inhibition for the following molecule: "Cc1ccc(S(=O)(=O)n2nc(OC(=O)C(C)(C)C)cc2N)cc1" 25.5

Give inhibition for the following molecule: "O=C1C=C(c2cc(C(F)(F)F)cc(C(F)(F)F)c2)C[C@@H](c2ccc3c(c2)OCO3)C1" -2.52

Give inhibition for the following molecule: O=C(COC(=O)C1CCCO1)Nc1nc(-c2ccc(F)cc2)cs1 (stereo not given) 5.58

Give inhibition for the following molecule: "CCOc1ccccc1-n1c(SCC(=O)NCc2ccco2)nnc1-c1ccncc1" 8.51

Give inhibition for the following molecule: "O=C(COC(=O)c1ccccc1Br)Nc1nnc(-c2ccccc2)o1" 0.631

* * *

assay: growth inhibitors of tim10-1 mutant yeast, primary screen, luminescence, uHTS (AID 463190); conditions: S. cerevisiae tim10-1 ts strain growth, BacTiter-Glo, 24 h; at 20 µM
The campaign covered roughly 330,000 compounds. About 7,300 (2.2%) were called active.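 Rule for the calls: active = inhibition of at least 40%; inactive = the rest.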 This is one part of a sample in which actives are shown more often than they occur.
Outcome (select one): active, inactive

Examples with answers:
                                   molecule  category
0  C[N+]1(CC(O)COc2ccccc2)CCN(C(=O)c2ccc([N+](=O)[O-])cc2)CC1 (centres undefined)  inactive
1         CC(C)CC(=O)N/C(N)=N/c1nc2ccccc2s1  inactive
2  COc1ccc(-c2oc3ncnc(NCCCO)c3c2-c2ccc(OC)cc2)cc1  inactive

Call for entry "COc1cc(Cl)c(C)cc1NC(=O)CSc1nnc(-c2cccnc2)n1Cc1ccco1" : inactive

Call for entry "O=C(Nc1ccc(F)cc1)C1CCN(C(=O)c2ccc([N+](=O)[O-])cc2)CC1" : inactive

* * *

assay: growth inhibitors of tim10-1 mutant yeast, primary screen, luminescence, uHTS (AID 463190); conditions: S. cerevisiae tim10-1 ts strain growth, BacTiter-Glo, 24 h; at 20 µM; stronger effect = higher value
In all, about 330,000 compounds went through this assay and about 7,300 (2.2%) were called active. Only a selection was taken, and actives are over-represented in it overall.
Reported inhibition by item:

Recorded results for 2 molecules are shown here.
In [3]: df
Out[3]:
                    input_smiles     readout           reading
0  ONC(=Nc1ccc(Cl)cc1)c1ccccc1Cl  inhibition    42.6% (active)
1      ONC(=Nc1ccccc1)c1ccccc1Cl  inhibition  18.6% (inactive)

Give inhibition for the following molecule: "C/C(=N\NC(=O)CNc1cccc2ccccc12)c1ccc(Br)s1" 41.9% (active)

* * *

test: growth inhibitors of tim10-1 mutant yeast, primary screen, luminescence, uHTS (AID 463190);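 further: mutant grown at 25 °C; 0% = DMSO wells with yeast and 100% = wells holding no yeast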; conditions: S. cerevisiae tim10-1 ts strain growth, BacTiter-Glo, 24 h; at 20 µM
Screen size: about 330,000 compounds; about 7,300 (2.2%) were called active.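 The calls were made as follows: active = inhibition of at least 40%; inactive = the rest.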 The sample holds actives, similar compounds and a random draw of the others, so the mix is not that of the screen.
Outcome (select one): TRUE (active), FALSE (inactive)

Examples with answers:
>>> df
                                   compound  category
0  O=C1/C(=C\c2ccccc2Cl)SC(=S)N1CCC(=O)N1CCCc2ccccc21      TRUE
1  O=C(Oc1ccc(-c2nc(-c3ccccn3)no2)cc1)c1ccccc1      TRUE
2  Cc1c2cnn(CC(=O)NCCCN3CC(C)CC(C)C3)c(=O)c2c(C)n1Cc1ccc(Cl)cc1 (centres undefined)     FALSE

Call for entry CCC(=O)c1ccc(OCC(=O)N(CC)CC2COc3ccccc3O2)cc1 (centres undefined) : FALSE

Call for entry "Brc1ccc(-c2noc(-c3ccccc3)n2)o1" : FALSE

Call for entry "O=C(N/N=C/c1cccnc1)c1ccc(NC(=O)c2ccc(F)cc2)cc1" : FALSE

Call for entry "Cc1ccc(N/C(N)=N/c2nc(C(F)(F)F)cc(C(F)(F)F)n2)cc1" : FALSE

Call for entry "C=CCNc1nc(Nc2ccc(Cl)cc2)nc(OC)n1" : TRUE

Call for entry "CCOc1cc2c(Cl)ncnc2c(OCC)c1OCC" : FALSE

Call for entry CN(C(=O)CCN1C(=O)/C(=C/c2ccccc2F)SC1=S)C1CCS(=O)(=O)C1 (centres undefined) : FALSE

Call for entry "COc1cc(CN2CCC(n3nccc3NC(=O)CCCc3ccccc3)CC2)ccc1O" : FALSE

Call for entry "COc1ccc(C(=O)NCC(=O)N/N=C/c2ccc([N+](=O)[O-])s2)cc1OC" : FALSE

* * *

assay: growth inhibitors of tim10-1 mutant yeast, primary screen, luminescence, uHTS (AID 463190);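 further: mutant grown at 25 °C; 0% = DMSO wells with yeast and 100% = wells holding no yeast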; conditions: S. cerevisiae tim10-1 ts strain growth, BacTiter-Glo, 24 h; at 20 µM
Screen size: about 330,000 compounds; about 7,300 (2.2%) were called active.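 The calls were made as follows: active = inhibition of at least 40%; inactive = the rest.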 This is one part of a sample in which actives are shown more often than they occur.
Outcome (select one): active, inactive

Examples with answers:
                                   compound  category
0  CCc1ccc(OCC(=O)NCC(c2ccc(Cl)cc2)N2CCCCC2)cc1 (stereo unspecified)  inactive
1  CCC(C)[C@@H](C(=O)N1CCNCC1)n1cc(CCCCN)nn1 (stereo partly specified)  inactive
2    C=CCNc1nc(N)c(C(=C(C#N)C#N)c2ccccc2)s1  inactive

Call for entry CC1(c2nnc(-c3ccncc3)o2)CC(c2cccnc2)=NO1 (stereo unspecified) : inactive

Call for entry "Cn1c(CN2CCOCC2)nc2cc(NC(=O)c3ccc(Cl)cc3)ccc21" : inactive

Call for entry "CSc1nnc(NC(=O)c2nc(S(=O)(=O)Cc3ccc(C)cc3)ncc2Cl)s1" : active

Call for entry "COc1ccc2oc(-c3cccc(NC(=O)CSc4ccc(Cl)cc4)c3)nc2c1" : inactive

* * *

experiment: growth inhibitors of tim10-1 mutant yeast, primary screen, luminescence, uHTS (AID 463190);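 further: mutant grown at 25 °C; 0% = DMSO wells with yeast and 100% = wells holding no yeast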; details: S. cerevisiae tim10-1 ts strain growth, BacTiter-Glo, 24 h; at 20 µM
Screen size: about 330,000 compounds; about 7,300 (2.2%) were called active.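 Rule for the calls: active = inhibition of at least 40%; inactive = the rest.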 Only a selection was taken, and actives are over-represented in it overall.
Outcome (select one): active, inactive

Examples with answers:
                                   compound  category
0  Cc1cc(-c2nnc(CCC(=O)NC(c3ccccc3)c3ccccc3)o2)no1  inactive
1  Cc1ccc(CCNC(=O)C2CCN(S(=O)(=O)N3CCCC3)CC2)cc1  inactive
2  CN(C)N1C(N)=C(C#N)C(c2ccc(Br)cc2)C2=C1CCCC2=O (stereo not drawn)    active
3  O=C(c1cc(C(=O)N2CCN(c3ccc(F)cc3)CC2)cc([N+](=O)[O-])c1)N1CCN(c2ccc(F)cc2)CC1  inactive
4     C/C(=N\N1CCN(Cc2ccc(C)cc2)CC1)c1ccco1  inactive
5  Cc1ccc(S(=O)(=O)NCC2CCC(C(=O)N3CCOCC3)CC2)cc1 (stereo not drawn)  inactive

Call for entry CCc1ccc(C2C(C#N)=C(N)N(N(C)C)C3=C2C(=O)CCC3)s1 (stereo not drawn) : inactive

Call for entry "O=C(NCCCn1ccnc1)/C(=C\c1ccccc1F)NC(=O)c1ccccc1" : inactive

Call for entry "Cc1cc(SCc2c(F)cccc2Cl)nc(=O)[nH]1" : inactive

Call for entry "Cc1nonc1C(=O)N/N=C/c1ccc(O)cc1" : active

Call for entry "COC(=O)c1cc2c(ccn2C)n1C" : inactive

Call for entry "c1ccc(Cc2ccc(OCCn3ccnc3)cc2)cc1" : inactive

Call for entry CCC(C)(C)n1nnnc1C(c1cccs1)N1CCN(c2nc3ccccc3s2)CC1 (stereo not drawn) : inactive

Call for entry "Cc1[nH]c2ccccc2c1/C=C(/C#N)C(=O)NC(C)C" : inactive

Call for entry "Cc1cc2ccccn2c1C(=O)c1cccc(F)c1" : inactive

Call for entry CN1c2ccccc2-c2nc3ccccc3n2C1c1ccco1 (stereo not drawn) : active

Call for entry "Cc1n[nH]c(=O)c2c(NC(=O)COC(=O)c3ncc(Cl)c(Cl)c3Cl)oc(C)c12" : inactive

Call for entry "COc1cc(C(=O)NCC(=O)NCCSc2ccc(Br)cc2)cc(OC)c1OC" : inactive

Call for entry "O=C(Cn1cnc2c(OCc3ccccc3)ncnc21)NCc1nc2ccccc2[nH]1" : inactive

Call for entry "CC(C)(C)C(=O)/C(C#N)=C/c1ccc(O)cc1" : inactive

Call for entry Cc1ccc(S(=O)(=O)NC(C(=O)N2CCOCCOCCOCCOCC2)c2ccccc2)cc1 (stereo not drawn) : active
